RESULT_TYPE: logP

// below: answered molecules
1) CCS(=O)c1ccc([N+](=O)[O-])cc1C#N (configuration not stated)	2.15
2) CCS(=O)c1ccc(C(=O)c2ccccc2)cc1[N+](=O)[O-] (configuration not stated)	3.82
3) CCS(=O)c1sc(Cl)cc1C#N (configuration not stated)	2.31
4) CCS(=O)c1sc(C(C)=O)c(N)c1C#N (configuration not stated)	1.82
5) CS(=O)c1scc(-c2ccccc2)c1[N+](=O)[O-] (configuration not stated)	3.2

1. CC(=O)c1sc(S(C)=O)c(-c2ccc(Cl)cc2)c1C (configuration not stated)
2. CCS(=O)c1sc(C(C)=O)c(Cl)c1C#N (configuration not stated)
Query: Of 1 and 2 , which one carries the higher reported logP? Your answer should be the label attached to the chosen record.
Reply: 1
